Tested on: HeLa
Test: Confirmatory qHTS for gynecologic anti-cancer compounds from libraries of approved drugs and bioactive compounds; also: nearly all actives have a fitted effect of over 55% in size
Conditions: gynecologic cancer cell panel viability, ATPlite luminescence, 48 h; series mostly up to 57.6 µM
Inconclusive results are not listed. The source made the active and inactive calls. Calls follow the shape of the dose curve; as a rule, active = well fitted cell-killing curve with a large enough effect; inconclusive = small, poorly fitted or top-dose-only effect, or effect the other way; inactive = no such curve, though single readings can be large or run the other way.
Your response should consist of one outcome taken from active, inactive

Use these answered entries as a reference point.
# molecule, assigned-label
records = [
    ("C#C[C@]1(O)CC[C@H]2[C@@H]3CCC4=CC(=O)CC[C@@H]4[C@H]3CC[C@@]21CC", "active"),
    ("CN(C)c1ccc(-c2nc3ncc(Cl)c(N4CCN(CC(=O)Nc5nccs5)CC4)c3[nH]2)cc1", "active"),
    ("Cc1cnc(Nc2ccc(F)cc2Cl)nc1-c1c[nH]c(C(=O)NC(CO)c2cccc(Cl)c2)c1 (centres undefined)", "active"),
]

Proceed to the following item.
## Input For "C[C@]12CCC(=O)C=C1CC[C@@H]1[C@@H]2[C@@H](O)C[C@@]2(C)[C@H]1CC[C@]2(O)C(=O)CO" , which call appears in the assay record?
## Output inactive

* * *

Tested on: HeLa
Assay: Confirmatory qHTS for gynecologic anti-cancer compounds from libraries of approved drugs and bioactive compounds; also: nearly all actives have a fitted effect of over 55% in size
Conditions: gynecologic cancer cell panel viability, ATPlite luminescence, 48 h; series mostly up to 57.6 µM
Results filed as inconclusive are left out. Active and inactive are the calls of the source. Calls come from the whole dose curve; as a rule, active = well fitted cell-killing curve with a large enough effect; inconclusive = small, poorly fitted or top-dose-only effect, or effect the other way; inactive = no such curve, though single readings can be large or run the other way.
# valid calls are true (active), false (inactive); nothing else

# molecule, assigned-label
data = [
    ("CS(=O)(=O)c1ccc(C(=O)Nc2ccc(Cl)c(-c3ccccn3)c2)c(Cl)c1", "false"),
]

## Input Dear colleague, could you share the recorded outcome for "Cc1ccc(C(=O)Nc2ccc(Oc3cc4cnn(C)c4cc3-c3cn[nH]c3)c(F)c2)c(=O)n1-c1ccc(F)cc1" when you have a moment?
## Output true

## Input Call for entry "O=C(c1ccc(F)c(F)c1Nc1ccc(I)cc1F)N1CC(O)([C@@H]2CCCCN2)C1" :
## Output true

## Input Query: recorded result category for Cc1nc2ccc(CN(C)c3ccc(C(=O)NC(CCC(=O)O)C(=O)O)s3)cc2c(=O)[nH]1 (stereo not drawn) in this test
## Output true

## Input So what was the verdict on "Cc1cc(SCc2sc(-c3ccc(C(F)(F)F)cc3)nc2C)ccc1OCC(=O)O" in this test?
## Output false

* * *

System: HeLa
Assay: Confirmatory qHTS for gynecologic anti-cancer compounds from libraries of approved drugs and bioactive compounds; also: nearly all actives have a fitted effect of over 55% in size
Settings: gynecologic cancer cell panel viability, ATPlite luminescence, 48 h; series mostly up to 57.6 µM
Excerpt: National Center for Advancing Translational Sciences [NCATS] Assay Overview: Chemotherapeutic drug responses vary from cancer to cancer and from patient to patient. […] ATPlite is a luminescence based assay reliant on the conversion of a luciferase substrate to light in the presence of ATP. As a cytotoxic compound will suppress growth and decrease the number of cells, the concentration of ATP will decrease, and less light signal will be detected in the well. […]
Inconclusive results are not listed. The source made the active and inactive calls. Calls follow the shape of the dose curve; as a rule, active = well fitted cell-killing curve with a large enough effect; inconclusive = small, poorly fitted or top-dose-only effect, or effect the other way; inactive = no such curve, though single readings can be large or run the other way.
Select the correct class. Options are active, inactive and nothing else.

# molecule, assigned-label
rows = [
    ("Cn1cnc2c(F)c(Nc3ccc(Br)cc3F)c(C(=O)NOCCO)cc21", "inactive"),
    ("Cc1cc(Nc2cc(N3CCN(C)CC3)nc(/C=C/c3ccccc3)n2)n[nH]1", "active"),
    ("CN(C)CCC(CSc1ccccc1)Nc1ccc(S(=O)(=O)NC(=O)c2ccc(N3CCN(Cc4ccccc4-c4ccc(Cl)cc4)CC3)cc2)cc1[N+](=O)[O-] (configuration not stated)", "active"),
    ("Cc1nc(Nc2n[nH]c3c2CN(C(=O)NC(CN(C)C)c2ccccc2)C3(C)C)c2sccc2n1 (configuration not stated)", "active"),
    ("CN1C(=O)C(Cc2c[nH]c3ccccc23)NC1=S (configuration not stated)", "inactive"),
]

## Input Per the records of this test, what outcome belongs to CC(=O)NCC(=O)N1C2CCC1c1cc(Nc3ncc(C(F)(F)F)c(NC4CCC4)n3)ccc12 (configuration not stated) ?
## Output active

## Input Which outcome was assigned to "Nc1cccc(-c2cc3c(Oc4cccc(O)c4)ncnc3[nH]2)c1" in this test?
## Output active

* * *

Tested on: HeLa
Assay: Confirmatory qHTS for gynecologic anti-cancer compounds from libraries of approved drugs and bioactive compounds; also: nearly all actives have a fitted effect of over 55% in size
Settings: gynecologic cancer cell panel viability, ATPlite luminescence, 48 h; series mostly up to 57.6 µM
Results filed as inconclusive are left out. The source made the active and inactive calls. Calls come from the whole dose curve; as a rule, active = well fitted cell-killing curve with a large enough effect; inconclusive = small, poorly fitted or top-dose-only effect, or effect the other way; inactive = no such curve, though single readings can be large or run the other way.
Return exactly one item of Yes = active, No = inactive

## Input I'd appreciate the recorded outcome for "COc1cc(Nc2ncc3c(n2)-c2ccc(Cl)cc2C(c2c(F)cccc2OC)=NC3)ccc1C(=O)O" from this test.
## Output Yes

## Input Status in this test for Nc1nc(Cl)nc2c1ncn2C1OC(CO)C(O)C1F (stereo not drawn) ?
## Output No

## Input # fetch the recorded call for "C[C@@]1(C(=O)Nc2ccc(F)nc2)CCCN1c1nc(Nc2cc(C3CC3)[nH]n2)c2cccn2n1" here
## Output Yes
